# target desc: human recombinant VDR (Homo sapiens)
# Sequence (P11473 whole entry): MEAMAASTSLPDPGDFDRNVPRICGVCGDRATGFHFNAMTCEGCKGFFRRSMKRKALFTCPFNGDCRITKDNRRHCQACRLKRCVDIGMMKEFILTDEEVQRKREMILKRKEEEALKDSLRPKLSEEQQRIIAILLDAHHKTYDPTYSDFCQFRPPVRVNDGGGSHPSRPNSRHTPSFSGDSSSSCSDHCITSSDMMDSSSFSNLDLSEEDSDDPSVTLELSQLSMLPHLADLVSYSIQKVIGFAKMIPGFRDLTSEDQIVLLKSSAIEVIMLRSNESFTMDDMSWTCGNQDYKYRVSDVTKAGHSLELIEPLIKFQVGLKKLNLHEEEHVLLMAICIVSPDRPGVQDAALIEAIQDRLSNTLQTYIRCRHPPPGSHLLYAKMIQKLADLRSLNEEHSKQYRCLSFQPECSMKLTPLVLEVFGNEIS
# protocol summary: competitive binding to the human VDR
quantity kind: IC50 (nM)
Your answer is read as nM, so omit the unit and give the number.

[Q] Recorded IC50 for C=C1/C(=C\C=C2/CCC[C@]3(C)[C@@H]([C@H](C)COCC4=CCCCC4(C)C)CC[C@@H]23)C[C@@H](O)C[C@@H]1O [Analog 1d] with human recombinant VDR (Homo sapiens), please?
[A] 300
